Molecular target: CFTR ΔF508 (Homo sapiens, UniProt P13569, DEL508-508)
Construct: bronchial epithelial cells isolated from CF patients homozygous for the CFTR ΔF508 mutation; McGill University; Asterand; University of North Carolina hAEC-CF; host or cells: primary human bronchial epithelial cells from CF patients homozygous for ΔF508, differentiated at air-liquid interface
Sequence (P13569 with tags, fused parts or gaps DEL508-508): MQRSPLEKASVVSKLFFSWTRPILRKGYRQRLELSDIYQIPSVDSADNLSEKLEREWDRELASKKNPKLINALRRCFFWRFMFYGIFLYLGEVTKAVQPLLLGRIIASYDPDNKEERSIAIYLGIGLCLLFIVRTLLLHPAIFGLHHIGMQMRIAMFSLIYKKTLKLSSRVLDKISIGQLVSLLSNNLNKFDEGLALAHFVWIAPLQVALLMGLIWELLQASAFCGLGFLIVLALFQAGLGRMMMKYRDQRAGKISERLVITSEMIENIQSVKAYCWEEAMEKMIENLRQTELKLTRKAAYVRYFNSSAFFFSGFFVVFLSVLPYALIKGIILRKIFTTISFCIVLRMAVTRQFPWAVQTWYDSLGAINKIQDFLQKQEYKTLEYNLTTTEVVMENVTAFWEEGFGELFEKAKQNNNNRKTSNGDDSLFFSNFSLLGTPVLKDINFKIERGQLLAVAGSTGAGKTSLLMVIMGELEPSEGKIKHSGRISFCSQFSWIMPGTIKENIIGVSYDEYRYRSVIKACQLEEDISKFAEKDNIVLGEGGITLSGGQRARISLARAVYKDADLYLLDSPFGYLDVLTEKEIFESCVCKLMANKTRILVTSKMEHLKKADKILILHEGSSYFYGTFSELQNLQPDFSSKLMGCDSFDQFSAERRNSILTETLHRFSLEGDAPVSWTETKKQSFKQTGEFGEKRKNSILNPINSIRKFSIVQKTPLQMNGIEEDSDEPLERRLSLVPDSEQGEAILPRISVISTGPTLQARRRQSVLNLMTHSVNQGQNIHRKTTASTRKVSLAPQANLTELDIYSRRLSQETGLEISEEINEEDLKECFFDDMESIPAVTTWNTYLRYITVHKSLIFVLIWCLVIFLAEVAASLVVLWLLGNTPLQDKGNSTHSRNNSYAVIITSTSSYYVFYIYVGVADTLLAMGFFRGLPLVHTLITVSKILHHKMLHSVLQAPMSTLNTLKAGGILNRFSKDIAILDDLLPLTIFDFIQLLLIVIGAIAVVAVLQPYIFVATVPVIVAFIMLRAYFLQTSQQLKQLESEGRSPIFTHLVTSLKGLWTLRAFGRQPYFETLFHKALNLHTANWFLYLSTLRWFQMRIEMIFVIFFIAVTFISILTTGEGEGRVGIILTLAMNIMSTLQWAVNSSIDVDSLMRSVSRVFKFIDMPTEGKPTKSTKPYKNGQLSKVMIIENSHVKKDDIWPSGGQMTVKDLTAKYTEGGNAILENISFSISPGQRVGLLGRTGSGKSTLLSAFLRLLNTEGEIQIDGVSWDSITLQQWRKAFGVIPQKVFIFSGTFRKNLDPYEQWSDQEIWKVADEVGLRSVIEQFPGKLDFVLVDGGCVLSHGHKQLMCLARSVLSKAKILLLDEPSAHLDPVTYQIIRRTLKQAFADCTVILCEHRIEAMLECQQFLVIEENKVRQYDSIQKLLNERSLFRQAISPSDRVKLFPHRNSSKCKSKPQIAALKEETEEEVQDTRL
Experiment: Chronic TECC assay, primary bronchial epithelial cells of CF patients homozygous for CFTR ΔF508 (corrector, co-corrector and potentiator)
Format: cell-based
Settings: chronic TECC; AUC = full area under the curve upon forskolin stimulation; read-out: EC50 (nM) (AUC**)
Description: Primary Bronchial Epithelial Cells Protocol The TECC (Tranepithelial Clamp Circuit, EP-design) assay measures the functionality of the cystic fibrosis Transmembrane Conductance regulator (CFTR) by measuring the short circuit current (Isc) generated over the basolateral and apical membrane of lung epithelial cells. In TECC the transepithelial potential PD and transepithelial resistance (Rt) are measured in an open circuit and transformed to Ieq using Ohm's law. […]
Here, each record is paired with measured EC50 data.
Measure name: EC50

* COC(C)C1CCN(c2cc(C(=O)NS(C)(=O)=O)nc3c2c(C2CCC2)nn3-c2ccccc2)CC1 (stereo not drawn) | < 10 nM
* CS(=O)(=O)NC(=O)c1cc(OC[C@@H](F)C2CCOCC2)c2c(C3CCC3)nn(-c3ccccc3)c2n1 | > 1000 nM
* CC(C)c1nn(-c2ccc(F)cc2)c2nc(C(=O)NS(C)(=O)=O)cc(N3CCC4(CCO4)CC3)c12 | > 100 nM

These measurements were taken from patent US10259810B2.
